Consider the following compounds; for each one, report its IC50.
# Test system: HCT116 cells
# TEST: Cell viability assay (CellTiter-Glo, 72 hours) in HCT116 human colorectal cancer cells
# Format: cell-based
# PROTOCOL_CONDITIONS: Table 8; analogs of scaffold drawing 43 defined by R^2, R^3, X/Y, W; read-out: Activity (IC50 class, cell viability assay)
# Method: Cell culture: The HCT116 cell line was obtained from ATCC and cultured in Dulbecco's Modified Eagle's Medium (DMEM)-high glucose (Sigma Aldrich #D5796) supplemented with 10% fetal bovine serum (FBS) (Sigma-Aldrich #F2442) and 2 mM L-Glutamine (Sigma Aldrich #G7513). Cells were cultured at 37° C. in 5% CO2. The identity of all cell lines was confirmed by short tandem repeat (STR) analysis and confirmed to be mycoplasma-free using a PCR based assay (Genatlantis). […]

// worked examples, IC50 included
>  <COMPOUND>
CC#CCN1C(=O)c2ccc(Cl)cc2Sc2cc(NC(=O)C34CC(OC)(C3)C4)cnc21

>  <IC50>
< 500 nM

$$$$
>  <COMPOUND>
CC#CCN1C(=O)c2cc(F)ccc2Sc2cc(NC(=O)C3CCOC3)cnc21 (stereo not shown) [—CH2CCMe; tetrahydrofuran-3-yl; CH/CF; N]

>  <IC50>
< 500 nM

$$$$

For every record below, what is its IC50?
1. O=C(Nc1ccc2c(c1)Sc1ccc(F)cc1C(=O)N2CC#CCl)C1CC2(CC(=NO)C2)C1 (stereo not shown)
2. CC#CCN1C(=O)c2cc(F)ccc2Sc2cc(NC(=O)C=CCO)ccc21

Key:
["< 500 nM", "< 500 nM"]

Value source: patent US20260097047A1
